Molecular target: Kynureninase (Pseudomonas fluorescens, UniProt P83788)
Construct: Bacterial kynureninase was prepared from cells of Pseudomonas fluorescens; endogenous in cells; partially purified by DEAE-cellulose and ammonium sulfate
Sequence (P83788 1-416): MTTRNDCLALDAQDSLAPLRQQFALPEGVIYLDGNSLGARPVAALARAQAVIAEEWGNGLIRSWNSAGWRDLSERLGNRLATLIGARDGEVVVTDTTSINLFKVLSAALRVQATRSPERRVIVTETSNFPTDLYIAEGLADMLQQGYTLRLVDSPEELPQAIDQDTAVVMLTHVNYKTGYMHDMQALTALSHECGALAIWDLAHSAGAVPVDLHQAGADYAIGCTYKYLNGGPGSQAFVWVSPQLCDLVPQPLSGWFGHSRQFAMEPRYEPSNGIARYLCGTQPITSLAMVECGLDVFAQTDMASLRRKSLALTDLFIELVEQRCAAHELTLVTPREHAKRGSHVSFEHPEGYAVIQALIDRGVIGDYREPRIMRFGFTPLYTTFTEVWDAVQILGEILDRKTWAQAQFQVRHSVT
Test: Competitive inhibition of kynureninase by S-aryl cysteines and S-aryl cysteine sulfones
Type: biochemical
Details: Table 1; read-out: Ki
property label: Ki

[
  {
    "compound": "Nc1ccccc1S(=O)(=O)C[C@H](N)C(=O)O",
    "assay system": "Kynureninase (Pseudomonas fluorescens, UniProt P83788)",
    "obs value": "~70 nM"
  }
]

====

Target: Kynureninase (Pseudomonas fluorescens, UniProt P83788)
Construct: Bacterial kynureninase was prepared from cells of Pseudomonas fluorescens; endogenous in cells; partially purified by DEAE-cellulose and ammonium sulfate
Sequence (P83788 1-416): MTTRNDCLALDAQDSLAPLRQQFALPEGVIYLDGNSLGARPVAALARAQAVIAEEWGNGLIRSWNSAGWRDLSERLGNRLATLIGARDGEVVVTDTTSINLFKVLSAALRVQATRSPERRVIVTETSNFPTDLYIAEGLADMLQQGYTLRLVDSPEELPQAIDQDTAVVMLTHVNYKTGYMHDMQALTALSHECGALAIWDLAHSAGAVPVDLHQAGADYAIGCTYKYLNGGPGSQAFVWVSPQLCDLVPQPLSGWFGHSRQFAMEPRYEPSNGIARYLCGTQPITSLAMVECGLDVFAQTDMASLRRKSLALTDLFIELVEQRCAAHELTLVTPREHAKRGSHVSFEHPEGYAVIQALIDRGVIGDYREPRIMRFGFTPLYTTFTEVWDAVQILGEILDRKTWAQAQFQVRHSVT
Assay: Competitive inhibition of kynureninase by S-aryl cysteines and S-aryl cysteine sulfones
Assay type: biochemical
Settings: Table 1; read-out: Ki value
pKi: −log10 of the molar value.

[
  {
    "compound": "N[C@@H](CSc1ccccc1)C(=O)O [S-phenyl-L-cysteine]",
    "pKi": 3.15
  },
  {
    "compound": "N[C@@H](CS(=O)(=O)c1ccccc1)C(=O)O [S-phenyl-L-cysteine sulfone]",
    "pKi": 5.41
  },
  {
    "compound": "Nc1ccccc1SC[C@H](N)C(=O)O [S-(2-aminophenyl)-L-cysteine]",
    "pKi": 5.66
  }
]
